# Target system: beta-catenin/TCF4 engagement (Homo sapiens, UniProt P35222)
# Construct: expressed in transfected cells; host or cells: HEK293
# Sequence (P35222 whole entry): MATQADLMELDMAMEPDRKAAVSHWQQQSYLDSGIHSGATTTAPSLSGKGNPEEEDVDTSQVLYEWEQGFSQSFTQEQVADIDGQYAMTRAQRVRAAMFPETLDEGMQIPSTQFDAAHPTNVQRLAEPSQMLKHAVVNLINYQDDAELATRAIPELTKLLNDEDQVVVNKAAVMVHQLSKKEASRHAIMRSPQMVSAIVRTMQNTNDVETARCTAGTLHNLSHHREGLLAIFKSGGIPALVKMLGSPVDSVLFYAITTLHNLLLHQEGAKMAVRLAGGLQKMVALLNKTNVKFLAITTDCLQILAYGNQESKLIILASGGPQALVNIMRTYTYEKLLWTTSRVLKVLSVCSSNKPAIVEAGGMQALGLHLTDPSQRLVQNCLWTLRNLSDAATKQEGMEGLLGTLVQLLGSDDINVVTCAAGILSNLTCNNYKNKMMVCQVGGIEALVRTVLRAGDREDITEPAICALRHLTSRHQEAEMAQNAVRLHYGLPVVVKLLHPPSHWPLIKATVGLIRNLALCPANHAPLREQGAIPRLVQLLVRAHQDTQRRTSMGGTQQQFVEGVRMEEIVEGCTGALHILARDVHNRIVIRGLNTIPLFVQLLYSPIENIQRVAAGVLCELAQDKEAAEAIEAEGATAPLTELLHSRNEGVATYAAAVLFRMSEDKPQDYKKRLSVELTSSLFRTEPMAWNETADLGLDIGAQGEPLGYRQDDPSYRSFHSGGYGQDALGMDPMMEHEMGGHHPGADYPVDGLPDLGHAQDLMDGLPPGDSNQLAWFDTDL
# Experimental details: Nano-BRET target engagement assay (B-cat-Halo & TCF4-Luc in HEK293 cells)
# Assay type: cell-based
# Conditions: absolute IC50; read-out: NanoBRET Abs IC50
Assay readout: IC50 (µM)
Numeric answer only, unit µM assumed.

Please review the following examples before continuing.
Compound	Reported value
CC(=O)N1CCC[C@]12CC=CCCCC1(CCCC=CCCCOC(=O)N3CC[C@@](C(=O)N[C@@H](Cc4ccsc4)C(=O)N[C@@H](Cc4csc5ccccc45)C(=O)N[C@@H](C)C(N)=O)(C3)NC(=O)[C@H](CC(C)C)NC(=O)[C@H](Cc3ccccc3)NC(=O)[C@H](C)NC(=O)[C@H](C)NC(=O)[C@H](CN(CC(=O)O)CC(F)(F)F)NC(=O)[C@H](CC(=O)O)NC1=O)NC(=O)[C@H](CC(C)(C)C)NC(=O)[C@H](CC(=O)O)NC2=O (stereo partly drawn)	3.9
CC(=O)N1CCC[C@]12CC=CCCCC1(CCCC=CCCCOC(=O)N3CC[C@@](C(=O)N[C@@H](Cc4cccc(F)c4)C(=O)N[C@@H](Cc4csc5ccccc45)C(=O)N[C@@H](C)C(N)=O)(C3)NC(=O)[C@H](CC(C)C)NC(=O)[C@H](Cc3ccccc3)NC(=O)[C@H](C)NC(=O)[C@H](C)NC(=O)[C@H](Cc3cccc(C(=O)O)c3)NC(=O)[C@H](CC(=O)O)NC1=O)NC(=O)[C@H](CC(C)(C)C)NC(=O)[C@H](CC(=O)O)NC2=O (stereo partly drawn)	6.4
CC(=O)N1CCC[C@]12CC=CCCCC1(CCCC=CCCCOC(=O)N3CC[C@@](C(=O)N[C@@H](Cc4c(F)c(F)c(F)c(F)c4F)C(=O)N[C@@H](Cc4csc5ccccc45)C(=O)N[C@@H](CCC(N)=O)C(N)=O)(C3)NC(=O)[C@H](CC(N)=O)NC(=O)[C@H](Cc3ccccc3)NC(=O)[C@H](C)NC(=O)[C@H](C)NC(=O)[C@H](CC(=O)O)NC(=O)[C@H](CC(=O)O)NC1=O)NC(=O)[C@H](CC(C)(C)C)NC(=O)[C@H](CC(=O)O)NC2=O (stereo partly drawn)	23.6
CC(=O)N1CCC[C@]12CC=CCCCC1(CCCC=CCCCOC(=O)N3CC[C@@](C(=O)N[C@@H](Cc4ccccc4C(F)(F)F)C(=O)N[C@@H](Cc4csc5ccccc45)C(=O)N[C@@H](CCC(N)=O)C(=O)N[C@@H](CC(C)C)C(=O)N[C@H](CCC(N)=O)C(N)=O)(C3)NC(=O)[C@H](CC(C)C)NC(=O)[C@H](Cc3ccccc3)NC(=O)[C@H](C)NC(=O)[C@H](C)NC(=O)[C@H](Cc3cccc(C(=O)O)c3)NC(=O)[C@H](CC(=O)O)NC1=O)NC(=O)[C@H](CC(C)(C)C)NC(=O)[C@H](CC(=O)O)NC2=O (stereo partly drawn)	3.6

CC(=O)N1CCC[C@]12CC=CCCCC1(CCCC=CCCCOC(=O)N3CC[C@@](C(=O)N[C@@H](Cc4ccsc4)C(=O)N[C@@H](Cc4csc5ccccc45)C(=O)N[C@H](CO)[C@@H](C)O)(C3)NC(=O)[C@H](Cc3cccc(C(F)(F)F)c3)NC(=O)[C@H](Cc3ccccc3)NC(=O)[C@H](C)NC(=O)[C@H](C)NC(=O)[C@H](CC(=O)O)NC(=O)[C@H](CC(=O)O)NC1=O)NC(=O)[C@H](CC(C)(C)C)NC(=O)[C@H](CC(=O)O)NC2=O (stereo partly drawn) has a reported IC50 of 10.9

CC(=O)N1CCC[C@]12CC=CCCCC1(CCCC=CCCCCCC[C@@](C)(C(=O)N[C@@H](Cc3ccccc3)C(=O)N[C@@H](Cc3csc4ccccc34)C(=O)N[C@@H](Cc3c[nH]cn3)C(N)=O)NC(=O)[C@H](CC(N)=O)NC(=O)[C@H](Cc3ccccc3)NC(=O)[C@H](C)NC(=O)[C@H](C)NC(=O)[C@H](CC(=O)O)NC(=O)[C@H](CC(=O)O)NC1=O)NC(=O)[C@H](CC(C)C)NC(=O)[C@H](CC(=O)O)NC2=O (stereo partly drawn) [I-565] has a reported IC50 of 26
